Parameter: inhibition at 10 µM. Scope: all listed entries.
biological target: UniProt:P20813; assay: CYP inhibition, CYP2B6; format: biochemical
Sequence (P20813 whole entry): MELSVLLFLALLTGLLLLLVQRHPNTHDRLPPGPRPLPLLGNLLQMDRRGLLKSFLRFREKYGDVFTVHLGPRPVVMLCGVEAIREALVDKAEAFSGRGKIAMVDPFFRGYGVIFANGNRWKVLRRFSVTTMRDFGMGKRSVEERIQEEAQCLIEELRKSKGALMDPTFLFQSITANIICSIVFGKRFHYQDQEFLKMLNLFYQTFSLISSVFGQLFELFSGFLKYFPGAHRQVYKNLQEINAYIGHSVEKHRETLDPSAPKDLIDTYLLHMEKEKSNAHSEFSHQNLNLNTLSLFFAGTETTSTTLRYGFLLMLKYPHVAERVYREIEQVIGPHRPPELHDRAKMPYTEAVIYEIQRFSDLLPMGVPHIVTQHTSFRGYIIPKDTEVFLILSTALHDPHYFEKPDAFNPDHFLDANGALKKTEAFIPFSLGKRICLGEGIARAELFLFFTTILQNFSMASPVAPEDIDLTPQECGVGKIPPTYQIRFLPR
measured property: inhibition at 10 µM

In [3]: df
Out[3]:
                  compound_structure_string    measured_property  reported
0  CC12CCCC(C(=O)Nc3nc4cc(Cl)cc(Cl)c4s3)(CCC1)C2  inhibition at 10 µM     ≤ 50%
1  CC12CCCC(C(=O)Nc3nc4ccc(OC(F)(F)F)cc4s3)(CCC1)C2  inhibition at 10 µM     ≤ 50%

----------
target: CYP3A4 (Homo sapiens, UniProt P08684); assay: CYP inhibition, CYP3A4; type: biochemical
Sequence (P08684 whole entry): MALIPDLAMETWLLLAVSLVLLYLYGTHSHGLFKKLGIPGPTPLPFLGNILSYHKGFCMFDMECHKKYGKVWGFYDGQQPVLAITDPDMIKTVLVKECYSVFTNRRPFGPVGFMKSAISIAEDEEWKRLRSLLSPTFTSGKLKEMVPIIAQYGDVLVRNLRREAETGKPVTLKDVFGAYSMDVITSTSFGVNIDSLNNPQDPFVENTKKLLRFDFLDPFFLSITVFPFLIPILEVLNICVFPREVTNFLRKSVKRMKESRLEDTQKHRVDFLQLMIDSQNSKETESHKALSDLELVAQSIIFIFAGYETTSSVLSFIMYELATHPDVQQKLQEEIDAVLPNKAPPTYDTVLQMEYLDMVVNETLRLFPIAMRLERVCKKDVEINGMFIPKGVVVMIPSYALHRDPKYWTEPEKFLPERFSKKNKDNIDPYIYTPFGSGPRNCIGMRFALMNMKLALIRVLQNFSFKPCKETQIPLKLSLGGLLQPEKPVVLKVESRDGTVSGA
Parameter: inhibition at 10 µM. Scope: all listed entries.
measured property: inhibition at 10 µM

In [3]: df
Out[3]:
                                   compound    measured_property  reported
0  CC12CCCC(C(=O)Nc3nc4cc(Cl)cc(Cl)c4s3)(CCC1)C2 [Compound 43]  inhibition at 10 µM     ≤ 50%
1  CC12CCCC(C(=O)Nc3nc4ccc(OC(F)(F)F)cc4s3)(CCC1)C2 [Compound 52]  inhibition at 10 µM     ≤ 50%

----------
test system: CYP2B6, CYP2C8, CYP2C9, CYP2C19, CYP2D6, CYP3A4; test: CYP inhibition, in vitro panel of six common isoforms; type: biochemical; settings: human
pIC50: −log10 of the molar value.
measured property: pIC50

In [3]: df
Out[3]:
                                   compound  reported
0  CC1CC(C(=O)Nc2nc3ccc(OC(F)(F)F)cc3s2)CC(C)(C)C1 (stereo not shown)    < 4.70
